Target or test system: CDK2/CycE1 (Homo sapiens)
Construct: 1.5 nM CDK2/CycE1, amino acids 1-298/1-410, Carna BS
Assay info: CDK2 inhibition assay, PhosphoSens CSox-based Kinetic Assay Format (AssayQuant)
Setup conditions: 1.5 nM CDK2/CycE1, 1.5× Km ATP, 30 minute preincubation at 30° C., reaction 240 minutes; read-out: IC50 CDK2-CycE1 (AssayQuant) Using PhosphoSens ® CSox-based Kinetic Assay Format
Readout label: IC50

1. CNS(=O)(=O)c1ccc(Nc2ncc3ccc(=O)n(C4CCCC4)c3n2)c(C)c1 [I-252] = < 0.1 µM
2. CNS(=O)(=O)c1ccc(Nc2ncc(C(F)(F)F)c(-c3cn(C(C)C)c(C)n3)n2)c(C)c1 [I-266] = < 0.1 µM
3. Cc1cc(S(=O)(=O)C2CCC3(CC2)CN(C)C3)ccc1Nc1ncc2cc(Cl)c(=O)n(C3CCCC3)c2n1 [I-41] = < 0.1 µM

Q: Item CCS(=O)(=O)c1ccc(Nc2nccc(-c3cnc(C)n3C(C)C)n2)c(C)c1 [I-29] has what recorded IC50?
Ans: 0.1 to 0.5 µM

Q: Which IC50 is listed for CCS(=O)(=O)c1ccc(Nc2ncc(C(F)(F)F)c(-c3cnn(C)c3)n2)c(C)c1 [I-27] ?
Ans: < 0.1 µM

Q: Looking for the measured IC50 of CNS(=O)(=O)c1ccc(Nc2ncc(C(F)(F)F)c(-c3cnc(C)n3C(C)C)n2)c(C)c1 [I-265] , can you help?
Ans: 0.1 to 0.5 µM

Q: Look up IC50: Cn1cc(S(=O)(=O)N2CCC(Nc3ncc4c(n3)N(C3CCCC3)C(=O)C43CC3)CC2)cn1 [I-255]
Ans: < 0.1 µM

Q: Can you share its IC50? I mean this molecule: CCS(=O)(=O)c1ccc(Nc2ncc3cc(C(F)F)c(=O)n(C(C)C)c3n2)c(C)c1 [I-31]
Ans: > 1 µM

---

The entries below are paired with their reported IC50.
Target or test system: CDK2/CycE1 (Homo sapiens)
Construct: 1.5 nM CDK2/CycE1, amino acids 1-298/1-410, Carna BS
Assay info: CDK2 inhibition assay, PhosphoSens CSox-based Kinetic Assay Format (AssayQuant)
Setup conditions: 1.5 nM CDK2/CycE1, 1.5× Km ATP, 30 minute preincubation at 30° C., reaction 240 minutes; read-out: IC50 CDK2-CycE1 (AssayQuant) Using PhosphoSens ® CSox-based Kinetic Assay Format

1. CNS(=O)(=O)c1ccc(Nc2ncc(C(F)(F)F)c(C3CCCCC3)n2)c(C)c1 [I-68] = > 1000 nM
2. Cn1cc(S(=O)(=O)N2CCC(Nc3ncc4c(n3)N([C@@H]3CCC[C@@]3(C)O)C(=O)C43CC3)CC2)cn1 [I-254] = < 100 nM
3. CCS(=O)(=O)c1ccc(Nc2ncc3c(n2)N(C2CCCC2)C(=O)C32CC2)c(C)c1 [I-35] = < 100 nM

Q: GET /values?readout=IC50&item= CC(=O)N1CCC(Nc2ncc3cc(Cl)c(=O)n(C(C)C)c3n2)CC1 [I-235]
Ans: 500 to 1000 nM

---

Target or test system: CDK2/CycE1 (Homo sapiens)
Construct: 1.5 nM CDK2/CycE1, amino acids 1-298/1-410, Carna BS
Assay info: CDK2 inhibition assay, PhosphoSens CSox-based Kinetic Assay Format (AssayQuant)
Setup conditions: 1.5 nM CDK2/CycE1, 1.5× Km ATP, 30 minute preincubation at 30° C., reaction 240 minutes; read-out: IC50 CDK2-CycE1 (AssayQuant) Using PhosphoSens ® CSox-based Kinetic Assay Format
Readout label: IC50

1) COCc1cc(-c2ccc(Nc3ncc4cc(Cl)c(=O)n(C(C)C)c4n3)c(C)c2)n(C)n1 = > 1000 nM
2) CCS(=O)(=O)c1ccc(Nc2ncc3cc(Cl)c(=O)n(C(C)C)c3n2)c(C)c1 = 100 to 500 nM
3) CNS(=O)(=O)c1ccc(Nc2ncc3cc(C(F)F)c(=O)n([C@@H]4CCC[C@@]4(C)O)c3n2)c(C)c1 = < 100 nM
4) CCS(=O)(=O)c1ccc(Nc2ncc3cc(F)c(=O)n(C4CCCC4)c3n2)c(C)c1 = 100 to 500 nM
5) CNS(=O)(=O)c1ccc(Nc2ncc3cc(Cl)c(=O)n(C(C)C)c3n2)c(C)c1 = < 100 nM
6) CNS(=O)(=O)c1ccc(Nc2ncc3cc(Cl)c(=O)n(C(C)C)c3n2)c(C)n1 = 100 to 500 nM
7) CCS(=O)(=O)c1ccc(Nc2ncc3cc(C(F)(F)F)c(=O)n(C4CCCC4)c3n2)c(C)c1 = 500 to 1000 nM
8) CNS(=O)(=O)c1ccc(Nc2ncc(C(F)(F)F)c([C@H]3CC[C@@](C)(O)CC3)n2)c(C)c1 = < 100 nM
9) COC1CC2(CCC(Nc3ncc4cc(Cl)c(=O)n(C5CCCC5)c4n3)CC2)C1 (stereo not shown) = > 1000 nM

Now consider the entry below.
Q: I'm curious: which IC50 was measured for `CNS(=O)(=O)c1ccc(Nc2ncc(C(F)(F)F)c(C3CCOCC3)n2)c(C)c1` tested on CDK2/CycE1 (Homo sapiens)?
Ans: 500 to 1000 nM
